- Tested on: glioma derived (SF539)
- assay.notes: Growth inhibition of human cell line SF539
- condition.parameters: 10 μM
Recorded Cell Toxicity SF539, % at 10 μM, one value per entry.

Solved entries:
Exam item: Fill: Cell Toxicity SF539, % at 10 μM (glioma derived (SF539)) for this compound Nc1ncnc2c1c(Cc1cccc3ccccc13)nn2CCC1CCNCC1
Marked response: <30% at 10 μM

Exam item: Retrieve Cell Toxicity SF539, % at 10 μM on glioma derived (SF539); query CCCCOc1ccc2cc(-c3nn(CC4CCNCC4)c4ncnc(N)c34)ccc2c1
Marked response: <30% at 10 μM

Exam item: State Cell Toxicity SF539, % at 10 μM (glioma derived (SF539)) of COc1ccc2cc(-c3nn(CC4CCNCC4)c4ncnc(N)c34)ccc2c1 .
Marked response: <30% at 10 μM

Exam item: Lab note: record Cell Toxicity SF539, % at 10 μM of CCCOc1ccc2cc(-c3nn(CC4CCNCC4)c4ncnc(N)c34)ccc2c1 tested on glioma derived (SF539).
Marked response: <30% at 10 μM

Exam item: Please indicate recorded Cell Toxicity SF539, % at 10 μM of CCCOc1ccc2cc(-c3nn(C(C)C)c4ncnc(N)c34)ccc2c1 measured with glioma derived (SF539).
Marked response: <30% at 10 μM

Exam item: Consider the compound CCN1CCC(Cn2nc(Cc3cccc4ccccc34)c3c(N)ncnc32)CC1 tested on glioma derived (SF539); state its Cell Toxicity SF539, % at 10 μM.
Marked response: <30% at 10 μM

Exam item: State Cell Toxicity SF539, % at 10 μM (glioma derived (SF539)) of CC(C)n1nc(Cc2cccc3ccccc23)c2c(N)ncnc21 .
Marked response: <30% at 10 μM

Exam item: Please report the measured Cell Toxicity SF539, % at 10 μM for CC(C)Oc1ccc2cc(-c3nn(C(C)C)c4ncnc(N)c34)ccc2c1 tested on glioma derived (SF539).
Marked response: <30% at 10 μM

More entries:
Exam item: Give reported Cell Toxicity SF539, % at 10 μM for CC(C)(C)n1nc(Cc2cccc3ccccc23)c2c(N)ncnc21 (glioma derived (SF539))
Marked response: <30% at 10 μM

Exam item: Give Cell Toxicity SF539, % at 10 μM for Nc1ncnc2c1c(Cc1cccc3ccccc13)nn2CC1CCNCC1 tested on glioma derived (SF539).
Marked response: <30% at 10 μM

* * *

- assayed.target: PfCDPK1 (Plasmodium falciparum (isolate 3D7))
- assay.notes: biochemical
quantity.measured: EC50 (nM)
Please respond with the number in nM and leave the unit unwritten.

Exam item: Report EC50 under test system PfCDPK1 (Plasmodium falciparum (isolate 3D7)) for N#Cc1cccc(-c2ccc(-c3nn(CC4CCNCC4)c4ncnc(N)c34)cc2)c1 .
Marked response: 347

Exam item: Under PfCDPK1 (Plasmodium falciparum (isolate 3D7)), report EC50 for CC(C)(C)C(=O)Nc1ccc(-c2nn(C(C)(C)C)c3ncnc(N)c23)cc1
Marked response: 66.4

Exam item: Lab note: PfCDPK1 (Plasmodium falciparum (isolate 3D7)) assay, enter EC50 for C=CCOc1ccc2cc(-c3nn(CC4CCNCC4)c4ncnc(N)c34)ccc2c1 here
Marked response: 146

Exam item: Report the value of EC50 obtained on PfCDPK1 (Plasmodium falciparum (isolate 3D7)) for CCC(=O)Nc1ccc(-c2nn(C(C)(C)C)c3ncnc(N)c23)cc1 .
Marked response: 325
